Known Control of a selection of compounds
Tested On: Glycogen synthase kinase-3 alpha (Homo sapiens) (UniProt P49840)
Sequence (P49840 2-483 limits assumed): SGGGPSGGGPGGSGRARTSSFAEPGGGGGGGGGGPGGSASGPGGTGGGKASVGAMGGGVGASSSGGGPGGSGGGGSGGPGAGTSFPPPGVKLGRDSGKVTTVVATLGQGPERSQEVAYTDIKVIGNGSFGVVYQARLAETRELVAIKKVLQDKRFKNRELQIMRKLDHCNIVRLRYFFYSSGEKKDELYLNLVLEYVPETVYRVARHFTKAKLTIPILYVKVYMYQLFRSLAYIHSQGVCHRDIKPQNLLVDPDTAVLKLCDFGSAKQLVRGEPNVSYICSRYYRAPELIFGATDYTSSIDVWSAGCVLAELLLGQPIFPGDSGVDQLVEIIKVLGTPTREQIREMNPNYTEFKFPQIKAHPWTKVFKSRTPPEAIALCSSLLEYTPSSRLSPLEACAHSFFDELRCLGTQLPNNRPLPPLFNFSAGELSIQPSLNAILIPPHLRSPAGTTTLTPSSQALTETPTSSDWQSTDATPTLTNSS
Assay Summary: Inhibitory activity against Glycogen synthase kinase-3 alpha, expressed as percent control
Set-up: concentration or dose not given beside the values

- Compound: "CC/C=C(\\CCC)C(=O)OC"
  Quantity Unit: "%"
  Control: 61.3
- Compound: "CCCC(C)(CCC)C(=O)OC"
  Quantity Unit: "%"
  Control: 99.7
- Compound: "C=CCC(CCC)C(=O)O (configuration not stated)"
  Quantity Unit: "%"
  Control: 99.2
- Compound: "CCCC(CCC)C(=O)OC"
  Quantity Unit: "%"
  Control: 104
- Compound: "CCCC(CCC)C(N)=O"
  Quantity Unit: "%"
  Control: 96.6
- Compound: "C=CCC(CCC)C(=O)OC (configuration not stated)"
  Quantity Unit: "%"
  Control: 99.9
- Compound: "CCCC(CCC)C(=O)O"
  Quantity Unit: "%"
  Control: 80.4
